Measured phosphorylation enrichment, listed per entry.
Biological target: EPHB1 (UniProt P54762)
Sequence (P54762 whole entry, looked up): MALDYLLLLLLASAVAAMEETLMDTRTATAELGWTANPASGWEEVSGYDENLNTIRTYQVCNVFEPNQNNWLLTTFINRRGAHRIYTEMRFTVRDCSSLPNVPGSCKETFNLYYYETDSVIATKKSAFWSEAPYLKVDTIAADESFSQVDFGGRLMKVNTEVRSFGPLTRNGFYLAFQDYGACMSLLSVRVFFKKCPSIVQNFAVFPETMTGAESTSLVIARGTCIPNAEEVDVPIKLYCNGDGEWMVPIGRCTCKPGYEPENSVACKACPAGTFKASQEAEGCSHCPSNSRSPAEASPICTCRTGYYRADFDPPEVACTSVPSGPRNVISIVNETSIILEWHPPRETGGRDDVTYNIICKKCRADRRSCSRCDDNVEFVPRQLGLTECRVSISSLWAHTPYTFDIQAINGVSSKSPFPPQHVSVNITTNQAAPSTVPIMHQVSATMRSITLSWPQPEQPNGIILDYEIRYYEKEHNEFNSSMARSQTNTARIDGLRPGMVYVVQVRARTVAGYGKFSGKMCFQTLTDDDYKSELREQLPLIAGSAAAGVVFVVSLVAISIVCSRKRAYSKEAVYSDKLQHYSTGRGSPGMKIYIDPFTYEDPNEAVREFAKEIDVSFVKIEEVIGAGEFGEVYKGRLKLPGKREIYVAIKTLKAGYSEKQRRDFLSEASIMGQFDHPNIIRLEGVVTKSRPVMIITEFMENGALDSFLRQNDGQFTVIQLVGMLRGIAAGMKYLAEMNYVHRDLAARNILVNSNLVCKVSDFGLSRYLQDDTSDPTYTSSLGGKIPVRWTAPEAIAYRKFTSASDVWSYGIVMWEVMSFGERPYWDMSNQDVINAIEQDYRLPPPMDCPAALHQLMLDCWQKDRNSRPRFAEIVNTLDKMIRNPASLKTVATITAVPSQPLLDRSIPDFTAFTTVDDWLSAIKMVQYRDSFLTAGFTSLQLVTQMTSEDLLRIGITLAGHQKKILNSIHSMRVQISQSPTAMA
Assay: phosphorylation enrichment, bacterial display (enrichment ratio); higher = better substrate or ligand; peptides without Tyr show the background;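 further: 11-residue human phosphosite peptides and single-mutation variants displayed on the E. coli surface, counted by deep sequencing, each peptide's frequency after selection divided by its frequency in the unselected input library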;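 further: frequency after pTyr selection over input frequency; kinase dosed for 20-30% of maximal phosphorylation in three min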
Returns: the value as a bare number; no unit string appended.

// known answers, use as guide
- SQKRKYIEIDS [SDAD1_Y580]: 0.463
- SSLMKYQQNVS [EGFEM1P_Y160_P157L]: 0.416
- ARMTNCGLPRF [TSPAN12_Y138_Y138C_YF]: 0.292
- RQGKDYVGAIP [KDR_Y951]: 0.471
- QDDFSYPSRQM [LDLR_Y847_G844D_YF]: 0.549
- NGRQCYSCKGN [PLAUR_Y217]: 0.266

Record request: phosphorylation enrichment value, item ASLEAYCKHKF [RXRA_Y403_YF]
0.572

Record request: phosphorylation enrichment value, item IVRSLYEDVED [VHL_Y185_L188V]
0.611

Record request: phosphorylation enrichment value, item MSDVPYVMNRG [ACAT1_Y161_N158D]
0.4

Record request: phosphorylation enrichment value, item RPQDGFRIVQH [PTPRT_Y1329_Y1329F]
0.62

Record request: phosphorylation enrichment value, item DDFNLYINVKL [MTHFD1_Y52_S49F]
0.86

Record request: phosphorylation enrichment value, item DKPENYRRLDI [VHL_Y175_V170D]
0.388

Record request: phosphorylation enrichment value, item GREFIYVDPMQ [PDGFRA_Y574_H570R_YF]
3.28

Record request: phosphorylation enrichment value, item EEGESYVCSSD [DCX_Y125]
0.814

Record request: phosphorylation enrichment value, item NDKLCYEVSSP [CDH13_Y66_R65C]
0.677

Record request: phosphorylation enrichment value, item DDPRTYQKFGF [OAS1_Y362_R361T_YF]
0.519

Record request: phosphorylation enrichment value, item VEKGSYSALLA [ABCC2_Y845]
0.354

Record request: phosphorylation enrichment value, item SQSPHYFRSGR [GPATCH8_Y1038]
0.56

Record request: phosphorylation enrichment value, item EMFNPYYGLFE [NEDD4L_Y679]
5.74

Record request: phosphorylation enrichment value, item NAPNSYGRRPI [CDKN2A_Y44]
0.581

---

Target: FGFR3 (UniProt P22607)
Sequence (P22607 whole entry, looked up): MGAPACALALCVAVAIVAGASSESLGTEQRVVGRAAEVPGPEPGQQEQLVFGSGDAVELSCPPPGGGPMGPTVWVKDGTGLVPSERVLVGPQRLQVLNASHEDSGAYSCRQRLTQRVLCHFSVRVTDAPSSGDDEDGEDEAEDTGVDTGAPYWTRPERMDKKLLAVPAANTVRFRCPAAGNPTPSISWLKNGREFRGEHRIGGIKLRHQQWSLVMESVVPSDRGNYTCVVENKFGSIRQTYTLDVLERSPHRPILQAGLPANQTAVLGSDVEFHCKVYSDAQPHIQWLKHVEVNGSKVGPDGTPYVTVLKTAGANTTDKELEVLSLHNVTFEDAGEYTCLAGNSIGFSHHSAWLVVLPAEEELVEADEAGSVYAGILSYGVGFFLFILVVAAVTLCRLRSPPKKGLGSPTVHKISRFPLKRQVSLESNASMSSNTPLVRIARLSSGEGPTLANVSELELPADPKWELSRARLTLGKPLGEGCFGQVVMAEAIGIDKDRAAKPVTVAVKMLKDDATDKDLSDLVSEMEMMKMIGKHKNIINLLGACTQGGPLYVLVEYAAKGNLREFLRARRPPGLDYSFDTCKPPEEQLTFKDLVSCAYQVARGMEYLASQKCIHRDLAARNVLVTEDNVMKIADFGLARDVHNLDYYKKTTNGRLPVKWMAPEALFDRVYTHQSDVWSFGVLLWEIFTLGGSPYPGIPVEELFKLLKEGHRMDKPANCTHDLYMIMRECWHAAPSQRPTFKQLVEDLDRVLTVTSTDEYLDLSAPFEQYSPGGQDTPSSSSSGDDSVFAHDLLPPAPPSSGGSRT
Test: phosphorylation enrichment, bacterial display (enrichment ratio); higher = better substrate or ligand; peptides without Tyr show the background
Measured phosphorylation enrichment, listed per entry.
Returns: the value as a bare number; no unit string appended.

// known answers, use as guide
- SIKNKYVTALY [KCNH2_Y611_D609N]: 0.598
- DAVAVYHGKIS [SH2D1A_Y7]: 0.492
- KKMKRYHVGKV [HARS2_Y151]: 0.486
- ISISPYPAILH [IFT80_Y588_T586S]: 0.547
- KSSDVYVSFDC [SORL1_Y136_Y141C_YF]: 1.61
- SSLMKYQQNVS [EGFEM1P_Y160_P157L]: 0.536
- AGQEKYSAMRD [HRAS_Y64_E63K]: 0.498
- NACGLYHTMNG [GATA5_Y216_K218T]: 1.79
- ENFSEYQEIAV [HEMGN_Y150]: 1.38
- SQSPHYFRSGR [GPATCH8_Y1038]: 0.425

phosphorylation enrichment of RKEAQYMLENE [SLC16A6_Y224] on FGFR3 (UniProt P22607)?
0.827

phosphorylation enrichment of QTPVLYAMLDH [MPZ_Y220] on FGFR3 (UniProt P22607)?
2.84

phosphorylation enrichment of RLVTRYIYNRE [HLA-DQB1_Y62_Y58L] on FGFR3 (UniProt P22607)?
0.739

Values from the supplement of paper PMC10065799
